- protocolNotes: yeast display, Sf9 membrane polyspecificity reagent, FACS + sequencing; frameworks hold sequencing errors
quantityName: polyreactivity (PSR sort gate)

QVQLVESGGVLVQAGGSLRLSCAASGSTLGGNAMGWYRQAPGKEMELVAAITSSAGSTYYADSVKGRFTISRDNAKNTVYLQMNSLKPEDTAVYYCDADYSRDEYDYWGQGTQVTVSS    low polyreactivity
QVQLVESGGGLVQAGGSLRLSCAASGSTIKPYTMGWYRPAPGKERELVAAITSGGRTYYADSVKGRFTISRDNAKNTVYLQMNSLKPEDTAVYYCNARRYLWLRRYDYWGQGTQVTVSS    high polyreactivity
QVQLVESGGGLVQAGGSLRLSCAASGLTFTSYAMGWYRQAPGKERELVAAIDWSGGRTYYADSVKGRFTISRDNAKNTVYLQMNSLKPEDTAVYYCAAYSRNRALRFNYWGQGTQVTVSS    high polyreactivity
QVQLVESGGCLVQAGGSLRLSCAASGSIFTTYAMGWYRQAPGKERELVAAISVSGSSTYYADSVKGRFTISRDNAKNTVYLQMNSLKPEDTAVYYCNKAFRSVRPRRRYDYWGQGTQVTVSS    low polyreactivity

Consider the record given below.
IN: # return recorded polyreactivity (PSR sort gate) for input `QFQLVESGGGLVHAGGSLRLSCAASGITFQWNSMGWYRQAPGKERELVAVISSDGRTYYADSVKGRFTISRDNAKYTVYLQMNSLKPEDTAVYYCNADRSVIHRGYIWQPGRNDYWGHGTQVTVSS`
OUT: low polyreactivity
